EXPERIMENT: in vitro
Parameters: Viability of infected HeLa host cells, resazurin conversion, bulk resorufin fluorescence relative to DMSO
CONDITION_INFO: human, hela cells; bulk resorufin, mean of 3
ASSAY_READOUT: viability at 28.5 h, 0.000416667 µM
Number first, unit second: that is the form wanted.

Worked set:
Cc1ccc2[nH]c3c(c2c1)CCOC31CCN(Cc2ccccc2-c2ccccc2)CC1 [c22e]	98.6%
FC(F)(F)CCN1CCC2(CC1)NCCc1c2[nH]c2ccc(Cl)cc12 [c34e]	86.8%
FC(F)(F)c1ccc(N2CCNCC2)nc1OCc1ccc2c(c1)OCCO2 [c46e]	85.8%
O=C(Nc1ccc(F)c(F)c1)NC1CCC2CN(CCOc3ccccc3)CC2C1 (stereo not drawn) [c9e]	90.2%

Dear colleague, could you send me viability at 28.5 h, 0.000416667 µM for each of the items below? Thanks.
1. O=[N+]([O-])c1ccc(-n2cnc3ccccc32)c([N+](=O)[O-])c1 [c41e]
2. O=C(CC1SC(Nc2ccc(O)cc2)=NC1=O)c1ccccc1 (stereo not drawn) [c13e]
3. COc1cccc(CNC(C(=O)O)c2ccc3c(c2)OCO3)c1 (stereo not drawn) [c40e]
4. CNC(=S)N1CCN(c2nsc3ccccc23)CC1 [c6e]

1. 99%
2. 95%
3. 109%
4. 103%

----------
For each entry below, report its viability at 28.5 h, 10 µM value.
EXPERIMENT: in vitro
CONDITION_INFO: human, hela cells, % viability
Answers are plain numbers, in %.

Worked set:
COc1ccc2nc(NCc3ccccc3)sc2c1	66.8
O=S(=O)(Nc1ccc(C(O)(C(F)(F)F)C(F)(F)F)cc1)c1ccc(N2CCOCC2)nc1	94.9
O=S(=O)(Nc1ccc(C(O)(C(F)(F)F)C(F)(F)F)cc1)c1ccccc1Br	96.3
O=C(Cc1cc(F)c(F)c(F)c1)Nc1cnccn1	90.1
Cc1ccccc1-n1ncc2c1NC(=O)N1CCCN=C21	78.7

Dear colleague, could you send me viability at 28.5 h, 10 µM for each of the items below? Thanks.
1. COc1cccc(CN2CCCC[C@H]3CN(C(C)=O)C[C@H]32)c1
2. CCN1C(=O)CC2(C1=O)C(=O)N(CCCN(C)S(C)(=O)=O)c1ccccc12 (stereo not drawn)
3. Cc1csc(C(Cc2ccsc2)NC(=O)c2c(C)noc2C)n1 (stereo not drawn)
4. O=C(NCCO)c1ccc(CSc2nc3sc4c(c3c(=O)[nH]2)CCCC4)cc1

1: 107; 2: 101; 3: 102; 4: 96.6

----------
EXPERIMENT: in vitro
CONDITION_INFO: human, hela cells, % viability
ASSAY_READOUT: viability at 28.5 h, 10 µM (%)
One number for each entry, in %.

Worked set:
O=C(CCN1CCc2ccccc2C1)Nc1cccc(F)c1	103
CC(C)c1ccc(/C=C/C(=O)NCCc2c[nH]cn2)cc1	101

Dear colleague, could you send me viability at 28.5 h, 10 µM for each of the items below? Thanks.
1. CC(=O)N(C)c1ncc(Br)cc1C(=O)NCc1nc2ccccc2[nH]1
2. COCCNc1nccnc1-c1cccs1
3. CC1Cc2cc(CC(=O)N(C)CC(F)(F)F)ccc2O1 (centres unmarked)

1: 95.9; 2: 100; 3: 109

----------
EXPERIMENT: in vitro
CONDITION_INFO: human, hela cells, % viability
For each entry below, report its viability at 28.5 h, 10 µM value.
One number for each entry, in %.

COc1ccccc1-c1nccnc1N[C@H]1CCN(Cc2ccccc2)C1	94.4

Dear colleague, could you send me viability at 28.5 h, 10 µM for each of the items below? Thanks.
1. CC(C)(C)C(=O)N1CCC(c2[nH]ncc2-c2ccncc2)CC1
2. CCn1c(SCC(=O)Nc2ccc([N+](=O)[O-])cc2)nnc1C(NC(=O)c1ccccc1)C(C)C (centres unmarked)
3. O=C(O)C1(Cc2cccc(-c3cccs3)c2)CCCNC1 (centres unmarked)
4. Cc1cc2c(cc1C)N(C(=O)CSc1nc3ccccc3[nH]1)C(C)(C)CC2C (centres unmarked)

1: 88.2; 2: 94.9; 3: 90.5; 4: 98.7

----------
EXPERIMENT: in vitro
CONDITION_INFO: human, hela cells, % viability
Binarize viability at 28.5 h, 10 µM at 90%; below is true, at or above is false.

Example results:
O=C(CC1S/C(=N/N=C/c2cn(Cc3ccccc3)c3ccccc23)NC1=O)Nc1ccccc1 (stereo not drawn) [CBK264529]	true
COCCN(C(=O)c1cc2cc(C)ccc2s1)C1CCS(=O)(=O)C1 (stereo not drawn) [CBK304289]	true
Cc1ccc(N(Cc2cc3cccc(C)c3nc2O)C(=O)c2cccc([N+](=O)[O-])c2)cc1 [CBK265426]	false
COc1ccc(CC(=O)Nc2ccc3n(c2=O)C[C@H]2C[C@@H]3CN(C(C)=O)C2)cc1 [CBK289203]	false
Cc1ccc(CN(CCCn2ccnc2)Cc2cccnc2)o1 [CBK283100]	false
Cc1ccc(-c2nc(C3CCCN3C(=O)C3CC3C(=O)O)n3ccccc23)cc1 (stereo not drawn) [CBK046559]	true

Quick check: viability at 28.5 h, 10 µM of Brc1ccc2[nH]c3c(c2c1)CCNC31CCN(CCOc2ccccc2)C1 (stereo not drawn) [CBK083578] under 90%?
true

----------
EXPERIMENT: in vitro
CONDITION_INFO: human, hela cells, % viability
Binarize viability at 28.5 h, 10 µM at 90%; below is y, at or above is n.

CCc1onc(C)c1C(=O)N1CCN(C2CCNC2)CC1 (centres unmarked)	n

Quick check: viability at 28.5 h, 10 µM of `Cc1nc(NC(=O)Cn2nc(N3CCSCC3)ccc2=O)sc1C` under 90%?
n

Quick check: viability at 28.5 h, 10 µM of `Cc1ccccc1NC(=O)c1cnc2sccn2c1=O` under 90%?
y

Quick check: viability at 28.5 h, 10 µM of `Cc1ccc(O)c(NC(=O)c2nc3nc(C)cc(C(F)F)n3n2)c1` under 90%?
n

Quick check: viability at 28.5 h, 10 µM of O=C(O)C1C2C=CC(O2)C1C(=O)NCC1CCCO1 (centres unmarked) under 90%?
n

Quick check: viability at 28.5 h, 10 µM of Cc1cc(C(NC(C)(C)C)C(=O)O)cc(C)c1O (centres unmarked) under 90%?
y

Quick check: viability at 28.5 h, 10 µM of CCn1c(C2CC(=O)N(c3ccc(C)cc3C)C2)nc2ccccc21 (centres unmarked) under 90%?
y

Quick check: viability at 28.5 h, 10 µM of `COc1cc([N+](=O)[O-])ccc1NC(=O)NCc1ccco1` under 90%?
n

Quick check: viability at 28.5 h, 10 µM of `CCOc1cc(OCC)cc(C(=O)N2CCC3(CC2)NC(=O)c2ccc(C)cc2O3)c1` under 90%?
n

----------
EXPERIMENT: in vitro
CONDITION_INFO: human, hela cells, % viability
ASSAY_READOUT: viability at 28.5 h, 10 µM (%)
Answers are plain numbers, in %.

Worked set:
Clc1ccc(-c2ccc(N3CCN(CCN4CCCC4)CC3)nc2)cc1 [CBK037623]	97.8
Cc1csc(C(Cc2cccs2)NCC2CCOC2)n1 (centres unmarked) [CBK285051]	110
Cc1nc2c(c(=O)[nH]1)CCN(C(=O)c1cc3c(s1)CCC3)C2 [CBK283751]	105
Nc1ncnc(N(c2ccccc2)c2ccccc2)n1 [CBK288139]	104

Okay, now this compound:
Would you mind telling me what viability at 28.5 h, 10 µM value was observed for O=C(CN1CCN(CCN2C(=O)c3cccc4cccc(c34)C2=O)CC1)c1ccc(F)cc1 [CBK263414B] ?
94.5

----------
For each entry below, report its viability at 28.5 h, 10 µM value.
EXPERIMENT: in vitro
CONDITION_INFO: human, hela cells, % viability
Answers are plain numbers, in %.

Worked set:
O=C(Nc1ccc(NC(=O)c2ccco2)cc1)c1ccc(N2CCOCC2)c([N+](=O)[O-])c1	95.2
CCn1cc(Cl)c(C(=O)Nc2ccsc2C(=O)OC)n1	90.9
CCCCSc1nc(N)cc(N2CCC(C(=O)N3CCOCC3)CC2)n1	96.8
CCCCc1ccc(NC(=O)CSc2nnc(N)s2)c(C)c1	91.9
CCc1nc2cc(NC(=O)CCCn3ccnc3C)ccc2n1CC	101
O=C(c1ccc(OC(F)F)cc1)N1CCCCC1	86.7

Dear colleague, could you send me viability at 28.5 h, 10 µM for each of the items below? Thanks.
1. O=C(NC(/C=C/c1ccccc1)c1cc([N+](=O)[O-])c2cccnc2c1O)C1CCCCC1 (stereo not drawn)
2. CC(C)CN(C)CC(=O)NC1(c2ccccc2)CCC1 [CBK067455T]
3. O=C(c1cc(F)c(F)cc1F)N1CCC2(CCCNC2)C1 (stereo not drawn) [CBK137068T]

1. 93
2. 111
3. 87
